Value source: ChEMBL document CHEMBL3758178

Tested on: COLO 205
PROCEDURE TEXT: Selectivity index, ratio of IC50 for human IMR90 cells to IC50 for human COLO205 cells
Format: functional
MEASURED ATTRIBUTE: Ratio IC50
// print number alone

Worked set:
- O=c1[nH]cnc2c1oc1nc(C(F)(F)F)ccc12: 16.9
- Cc1ccc(C(=O)Nc2c(-c3nnc(-c4ccc(C)cc4)o3)oc3nc(C(F)(F)F)ccc23)cc1: 8.4
- O=C(NNC(=O)c1oc2nc(C(F)(F)F)ccc2c1NC(=O)c1ccccc1)c1ccccc1: 7.7
- CCCCCCNC(=O)c1oc2nc(C(F)(F)F)ccc2c1N: 8.3
- Cc1nc2c(oc3nc(C(F)(F)F)ccc32)c(=O)n1/N=C/c1ccccc1: 105.8

[ask] Name the reported Ratio IC50 value associated with the molecule Nc1c(C(=O)N/N=C/c2ccc(F)cc2)oc2nc(C(F)(F)F)ccc12
[reply] 6.5
